- TARGET UNDER TEST: T1, KDM4A-DTD triple mutant N931D/D939R/D945R (DRR) (human, UniProt O75164 895-1011, N931D | D939R | D945R, HaloTag-Alexa 660 ligand conjugated to the HaloTag in the far western)
- T1 sequence: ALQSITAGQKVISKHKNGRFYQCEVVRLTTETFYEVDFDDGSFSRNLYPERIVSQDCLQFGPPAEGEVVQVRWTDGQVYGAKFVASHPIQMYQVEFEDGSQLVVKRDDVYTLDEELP
- ASSAY DETAILS: FP
pKd: −log10 of the molar value. No end group written: not given here.
List of pKd values.
PARAMETER: pKd

INSERT INTO assay_data (binder, parameter, quantitative_readout) VALUES
  ('ARTK(Me3)QTARKSTGGK (also: fluorescein label, end not given here) [H3K4me3 peptide, fluorescein-labelled]', 'pKd', 3.43),
  ('ARKSTGGK(Me3)APRKQLATK (also: fluorescein label, end not given here) [H3K14me3 peptide, fluorescein-labelled]', 'pKd', 3.80);
